Hello, the source for this data is patent US11952388B2, in case you need it.

Experiment: Pharmacokinetics of oral administration and intravenous injection in SD rats
Assay type: in vivo
Conditions: male, rat, plasma, 10 mg/kg, po 10 mpk
REPORTED PROPERTY: Cmax (µM)

INSERT INTO results (item_smiles, reported_property, uom, measured_result) VALUES
  ('Cc1cc2n(c1)S(=O)(=O)c1ccc(C(=O)NCC[C@H]3COCCO3)cc1NC2=O', 'Cmax', 'µM', 8.57);

----------
Molecular target: CYP1A2 (Homo sapiens, UniProt P05177)
Sequence (P05177 whole entry): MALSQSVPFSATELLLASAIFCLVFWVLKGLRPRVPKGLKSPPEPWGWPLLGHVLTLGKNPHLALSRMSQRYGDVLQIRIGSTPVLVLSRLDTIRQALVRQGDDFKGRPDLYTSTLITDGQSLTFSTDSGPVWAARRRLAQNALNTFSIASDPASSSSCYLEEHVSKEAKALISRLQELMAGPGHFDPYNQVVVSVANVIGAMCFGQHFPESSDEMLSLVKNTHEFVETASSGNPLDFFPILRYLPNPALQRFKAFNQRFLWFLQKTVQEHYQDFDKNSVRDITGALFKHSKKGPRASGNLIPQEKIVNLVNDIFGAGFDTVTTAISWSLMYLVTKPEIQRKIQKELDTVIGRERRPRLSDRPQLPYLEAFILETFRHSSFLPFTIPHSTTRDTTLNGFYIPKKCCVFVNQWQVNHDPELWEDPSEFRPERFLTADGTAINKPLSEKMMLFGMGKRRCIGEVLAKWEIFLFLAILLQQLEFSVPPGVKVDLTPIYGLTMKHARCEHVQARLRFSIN
REPORTED PROPERTY: IC50

INSERT INTO assay_data (molecule, measured_result) VALUES
  ('Cc1cc2n(c1)S(=O)(=O)c1ccc(C(=O)NCC[C@H]3COCCO3)cc1NC2=O [compound represented by formula (I)]', '> 50 µM');

----------
Assay: Pharmacokinetics of oral administration and intravenous injection in Beagle
Assay type: in vivo, beagle dogs
Settings: male, beagle, dog, plasma, 1 mg/kg; Dogs, iv 1 mpk; read-out: AUC0-last
REPORTED PROPERTY: AUC(0-t) (µM·h)

INSERT INTO measurements (molecule, measured_result) VALUES
  ('Cc1cc2n(c1)S(=O)(=O)c1ccc(C(=O)NCC[C@H]3COCCO3)cc1NC2=O [compound represented by formula (I)]', 2.68);

----------
Assay: Pharmacokinetics of oral administration and intravenous injection in Balb/c mice
Type: in vivo
Settings: female, mouse, plasma, 10 mg/kg, po 10 mpk, read-out: AUC0-24h
Experimental: 1. […] Whole blood was collected at a certain period of time to prepare plasma, drug concentration was analyzed by LC-MS/MS method, and pharmacokinetic parameters was calculated by Phoenix WinNonlin software (Pharsight, USA). […]
REPORTED PROPERTY: AUC(0-t) (µM·h)

INSERT INTO measurements (item_smiles, measured_result) VALUES
  ('Cc1cc2n(c1)S(=O)(=O)c1ccc(C(=O)NCC[C@H]3COCCO3)cc1NC2=O', 32.5);

----------
Assay: Pharmacokinetics of oral administration and intravenous injection in Beagle
Type: in vivo, beagle dogs
Conditions: male, beagle, dog, plasma, 1 mg/kg; Dogs, iv 1 mpk
REPORTED PROPERTY: half-life (h)

INSERT INTO measurements (item_smiles, reported_property, measured_result) VALUES
  ('Cc1cc2n(c1)S(=O)(=O)c1ccc(C(=O)NCC[C@H]3COCCO3)cc1NC2=O', 'half-life', 2.87);

----------
Assay: Pharmacokinetics of oral administration and intravenous injection in SD rats
Assay type: in vivo
Settings: male, rat, plasma, 1 mg/kg, iv 1 mpk, read-out: Vdss
Description: 2. […] Whole blood was collected at a certain period of time to prepare plasma, drug concentration was analyzed by LC-MS/MS method, and pharmacokinetic parameters was calculated by Phoenix WinNonlin software (Pharsight, USA). […]
REPORTED PROPERTY: Vd

INSERT INTO measurements (item_smiles, measured_result) VALUES
  ('Cc1cc2n(c1)S(=O)(=O)c1ccc(C(=O)NCC[C@H]3COCCO3)cc1NC2=O', '0.56 L/kg');

----------
Molecular target: CYP2D6 (Homo sapiens)
Sequence (P10635 whole entry): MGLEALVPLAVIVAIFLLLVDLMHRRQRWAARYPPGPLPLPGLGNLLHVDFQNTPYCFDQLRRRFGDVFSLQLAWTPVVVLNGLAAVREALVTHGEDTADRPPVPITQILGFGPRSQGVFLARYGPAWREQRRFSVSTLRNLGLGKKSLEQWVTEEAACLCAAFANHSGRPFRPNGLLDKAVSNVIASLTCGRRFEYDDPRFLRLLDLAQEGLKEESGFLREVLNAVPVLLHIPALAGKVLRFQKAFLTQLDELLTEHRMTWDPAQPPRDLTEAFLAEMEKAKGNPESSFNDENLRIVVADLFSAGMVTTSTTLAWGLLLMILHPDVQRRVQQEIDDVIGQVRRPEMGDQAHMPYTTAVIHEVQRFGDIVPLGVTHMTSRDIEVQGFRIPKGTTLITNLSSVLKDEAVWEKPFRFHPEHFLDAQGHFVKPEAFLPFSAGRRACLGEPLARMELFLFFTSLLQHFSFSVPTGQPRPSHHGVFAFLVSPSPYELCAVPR
REPORTED PROPERTY: IC50

INSERT INTO results (item_smiles, reported_property, measured_result) VALUES
  ('Cc1cc2n(c1)S(=O)(=O)c1ccc(C(=O)NCC[C@H]3COCCO3)cc1NC2=O', 'IC50', '> 50 µM');

----------
Test: Pharmacokinetics of oral administration and intravenous injection in Balb/c mice
Type: in vivo
Details: female, mouse, plasma, 1 mg/kg, iv 1 mpk, read-out: Vdss
REPORTED PROPERTY: Vd (L/kg)

INSERT INTO assay_data (item_smiles, reported_property, uom, measured_result) VALUES
  ('Cc1cc2n(c1)S(=O)(=O)c1ccc(C(=O)NCC[C@H]3COCCO3)cc1NC2=O', 'Vd', 'L/kg', 0.45);

----------
Experiment: Pharmacokinetics of oral administration and intravenous injection in SD rats
Type: in vivo
Settings: male, rat, plasma, 10 mg/kg, po 10 mpk
REPORTED PROPERTY: bioavailability (%)

INSERT INTO measurements (item_smiles, measured_result) VALUES
  ('Cc1cc2n(c1)S(=O)(=O)c1ccc(C(=O)NCC[C@H]3COCCO3)cc1NC2=O', 65);

----------
Experiment: Pharmacokinetics of oral administration and intravenous injection in SD rats
Type: in vivo
Settings: male, rat, plasma, 10 mg/kg, po 10 mpk, read-out: AUC0-24h
REPORTED PROPERTY: AUC(0-t)

INSERT INTO results (item_smiles, measured_result) VALUES
  ('Cc1cc2n(c1)S(=O)(=O)c1ccc(C(=O)NCC[C@H]3COCCO3)cc1NC2=O', '31.1 µM·h');

----------
Experiment: Pharmacokinetics of oral administration and intravenous injection in Beagle
Type: in vivo, beagle dogs
Conditions: male, beagle, dog, plasma, 1 mg/kg; Dogs, iv 1 mpk; read-out: Vdss
REPORTED PROPERTY: Vd (L/kg)

INSERT INTO results (item_smiles, uom, measured_result) VALUES
  ('Cc1cc2n(c1)S(=O)(=O)c1ccc(C(=O)NCC[C@H]3COCCO3)cc1NC2=O', 'L/kg', 2.95);

----------
Assay: Pharmacokinetics of oral administration and intravenous injection in Balb/c mice
Assay type: in vivo
Settings: female, mouse, plasma, 10 mg/kg, po 10 mpk
REPORTED PROPERTY: Cmax (µM)

INSERT INTO results (item_smiles, reported_property, measured_result) VALUES
  ('Cc1cc2n(c1)S(=O)(=O)c1ccc(C(=O)NCC[C@H]3COCCO3)cc1NC2=O', 'Cmax', 19.9);

----------
Test: Pharmacokinetics of oral administration and intravenous injection in Beagle
Format: in vivo, beagle dogs
Details: male, beagle, dog, plasma, 1 mg/kg; Dogs, iv 1 mpk
REPORTED PROPERTY: clearance (mL/min/kg)

INSERT INTO results (item_smiles, reported_property, measured_result) VALUES
  ('Cc1cc2n(c1)S(=O)(=O)c1ccc(C(=O)NCC[C@H]3COCCO3)cc1NC2=O', 'clearance', 15.6);

----------
Experiment: Pharmacokinetics of oral administration and intravenous injection in Beagle
Format: in vivo, beagle dogs
Settings: male, beagle, dog, plasma, 10 mg/kg; Dogs, po 10 mpk
REPORTED PROPERTY: Cmax (µM)

INSERT INTO results (item_smiles, reported_property, uom, measured_result) VALUES
  ('Cc1cc2n(c1)S(=O)(=O)c1ccc(C(=O)NCC[C@H]3COCCO3)cc1NC2=O', 'Cmax', 'µM', 5.85);

----------
Molecular target: CYP2C19 (Homo sapiens, UniProt P33261)
Sequence (P33261 whole entry): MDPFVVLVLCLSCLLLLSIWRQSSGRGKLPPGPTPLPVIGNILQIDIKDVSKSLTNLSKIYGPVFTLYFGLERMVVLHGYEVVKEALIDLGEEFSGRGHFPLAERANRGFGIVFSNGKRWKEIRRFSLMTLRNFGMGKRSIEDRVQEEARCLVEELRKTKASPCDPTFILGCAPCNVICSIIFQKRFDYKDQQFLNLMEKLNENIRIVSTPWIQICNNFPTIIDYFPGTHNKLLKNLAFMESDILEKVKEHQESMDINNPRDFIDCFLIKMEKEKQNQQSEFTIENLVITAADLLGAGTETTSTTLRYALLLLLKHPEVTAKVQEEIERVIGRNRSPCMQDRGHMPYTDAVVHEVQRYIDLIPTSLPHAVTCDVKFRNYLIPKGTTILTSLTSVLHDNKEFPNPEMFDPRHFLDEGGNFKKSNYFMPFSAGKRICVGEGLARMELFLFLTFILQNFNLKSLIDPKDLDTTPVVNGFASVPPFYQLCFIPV
REPORTED PROPERTY: IC50

INSERT INTO measurements (item_smiles, measured_result) VALUES
  ('Cc1cc2n(c1)S(=O)(=O)c1ccc(C(=O)NCC[C@H]3COCCO3)cc1NC2=O', '> 50 µM');

----------
Experiment: Pharmacokinetics of oral administration and intravenous injection in Balb/c mice
Format: in vivo
Settings: female, mouse, plasma, 10 mg/kg, po 10 mpk
REPORTED PROPERTY: Tmax (min)

INSERT INTO measurements (compound, reported_property, measured_result) VALUES
  ('Cc1cc2n(c1)S(=O)(=O)c1ccc(C(=O)NCC[C@H]3COCCO3)cc1NC2=O [compound represented by formula (I)]', 'Tmax', 30);

----------
Test: Pharmacokinetics of oral administration and intravenous injection in Beagle
Type: in vivo, beagle dogs
Details: male, beagle, dog, plasma, 10 mg/kg; Dogs, po 10 mpk; read-out: AUC0-24h
REPORTED PROPERTY: AUC(0-t) (µM·h)

INSERT INTO assay_data (compound, reported_property, uom, measured_result) VALUES
  ('Cc1cc2n(c1)S(=O)(=O)c1ccc(C(=O)NCC[C@H]3COCCO3)cc1NC2=O [compound represented by formula (I)]', 'AUC(0-t)', 'µM·h', 33.2);

----------
Test: Pharmacokinetics of oral administration and intravenous injection in Balb/c mice
Assay type: in vivo
Details: female, mouse, plasma, 1 mg/kg, iv 1 mpk
Experimental: 1. […] Whole blood was collected at a certain period of time to prepare plasma, drug concentration was analyzed by LC-MS/MS method, and pharmacokinetic parameters was calculated by Phoenix WinNonlin software (Pharsight, USA). […]
REPORTED PROPERTY: clearance (mL/min/kg)

INSERT INTO measurements (item_smiles, reported_property, uom, measured_result) VALUES
  ('Cc1cc2n(c1)S(=O)(=O)c1ccc(C(=O)NCC[C@H]3COCCO3)cc1NC2=O', 'clearance', 'mL/min/kg', 8.5);
